assayed_target: RXRγ (UniProt P28705)
run_description: receptor transactivation assay, RXRγ
Type: cell-based
Set-up: RXR Trans; other: RXRγ; first entry of cell
test_conditions: first entry of cell, read-out: RXR Trans. EC50 (nM) γ
property_label: EC50 (nM)

{"item_smiles": "CC(/C=C/[C@@H]1C[C@]1(C)c1cc(C(C)(C)C)c2c(c1)C(C)(C)CO2)=C\\C(=O)O", "property_label": "EC50", "uom": "nM", "reported_measurement": 0.78}
{"item_smiles": "CC(/C=C/[C@@H]1C[C@]1(C)c1cc(C(C)C)c2c(c1)C(C)(C)CO2)=C\\C(=O)O", "property_label": "EC50", "uom": "nM", "reported_measurement": 0.23}
{"item_smiles": "CC(/C=C/[C@@H]1C[C@]1(C)c1cc(C)c2c(c1)C(C)(C)CO2)=C\\C(=O)O", "property_label": "EC50", "uom": "nM", "reported_measurement": 4.4}
{"item_smiles": "COc1ccc(-c2cc([C@@]3(C)C[C@H]3/C=C/C(C)=C/C(=O)O)cc3c2OCC3(C)C)cc1", "property_label": "EC50", "uom": "nM", "reported_measurement": 561}
{"item_smiles": "CC(/C=C/[C@@H]1C[C@]1(C)c1cc(CC(C)(C)C)c2c(c1)C(C)(C)CO2)=C\\C(=O)O", "property_label": "EC50", "uom": "nM", "reported_measurement": 0.42}

* * *

assayed_target: RXRα (Homo sapiens, UniProt P19793)
Construct: the only RXRα plasmid printed
Sequence (P19793 227-462 limits assumed): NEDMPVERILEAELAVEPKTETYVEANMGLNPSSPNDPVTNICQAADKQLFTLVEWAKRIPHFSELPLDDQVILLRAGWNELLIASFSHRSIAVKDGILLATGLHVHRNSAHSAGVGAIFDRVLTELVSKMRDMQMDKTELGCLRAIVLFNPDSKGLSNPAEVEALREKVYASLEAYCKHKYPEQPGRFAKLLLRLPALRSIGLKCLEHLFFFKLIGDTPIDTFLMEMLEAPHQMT
run_description: receptor transactivation assay, RXRα
Format: cell-based
test_conditions: first entry of cell, read-out: RXR Trans. EC50 (nM) α
Description: A holoreceptor transactivation assay and a ligand binding assay which measure the antagonist/agonist like activity of the compounds of the invention, or their ability to bind to the several retinoid receptor subtypes, respectively, are described in published PCT Application No. WO WO93/11755 (particularly on pages 30-33 and 37-41) published on Jun. 24, 1993, the specification of which is also incorporated herein by reference. […]
property_label: EC50 (nM)

{"item_smiles": "CC(/C=C/[C@@H]1C[C@]1(C)c1cc(C)c2c(c1)C(C)(C)CO2)=C\\C(=O)O", "assayed_target": "RXRα (Homo sapiens, UniProt P19793)", "reported_measurement": 2.9}
{"item_smiles": "CC(/C=C/[C@@H]1C[C@]1(C)c1cc(-c2ccc(C(C)(C)C)cc2)c2c(c1)C(C)(C)CO2)=C\\C(=O)O", "assayed_target": "RXRα (Homo sapiens, UniProt P19793)", "reported_measurement": 1520}
{"item_smiles": "CC(/C=C/[C@@H]1C[C@]1(C)c1cc(CC(C)(C)C)c2c(c1)C(C)(C)CO2)=C\\C(=O)O", "assayed_target": "RXRα (Homo sapiens, UniProt P19793)", "reported_measurement": 0.246}
{"item_smiles": "CCc1cc([C@@]2(C)C[C@H]2/C=C/C(C)=C/C(=O)O)cc2c1OCC2(C)C", "assayed_target": "RXRα (Homo sapiens, UniProt P19793)", "reported_measurement": 0.3}
{"item_smiles": "CC(/C=C/[C@@H]1C[C@]1(C)c1cc(-c2c(C)cccc2C)c2c(c1)C(C)(C)CO2)=C\\C(=O)O", "assayed_target": "RXRα (Homo sapiens, UniProt P19793)", "reported_measurement": 0.52}
{"item_smiles": "CC(/C=C/[C@@H]1C[C@@H]1c1ccc2c(c1)C(C)(C)CO2)=C\\C(=O)O", "assayed_target": "RXRα (Homo sapiens, UniProt P19793)", "reported_measurement": 609}
{"item_smiles": "CCCCC(=O)CCc1cc([C@@]2(C)C[C@H]2/C=C/C(C)=C/C(=O)O)cc2c1OCC2(C)C", "assayed_target": "RXRα (Homo sapiens, UniProt P19793)", "reported_measurement": 330}
